Values of pIC50 reported for VHR (Homo sapiens) appear below.
pIC50: −log10 of the molar value.
experimental_readout: pIC50

compound | result
O=C(Nc1cnc2ccccc2c1)C(c1ccccc1)S(=O)(=O)O (centres unmarked) [Compound L319M88] | < 3.70
O=C(CS(=O)(=O)O)Nc1ccc2nc(C(F)(F)F)[nH]c2c1 | < 4.00
O=C(CS(=O)(=O)O)Nc1cnc2ccccc2c1 | < 4.00
O=C(C(c1ccccc1)S(=O)(=O)O)N1CCC(Cc2ccccc2)CC1 (centres unmarked) [Compound L319N46] | < 3.70
O=C(Nc1cccc(OCc2ccccc2)c1)C(c1ccccc1)S(=O)(=O)O (centres unmarked) [Compound L319M52] | < 3.70

* * *

The entries below come with measured IC50 values attached.
molecular target: VHX (Homo sapiens); assay: PTP inhibition assay (pNPP); format: biochemical; settings: pNPP at Km, pH 7.0, 25° C.; read-out: IC50 VHX
Sequence (Q9NRW4 whole entry): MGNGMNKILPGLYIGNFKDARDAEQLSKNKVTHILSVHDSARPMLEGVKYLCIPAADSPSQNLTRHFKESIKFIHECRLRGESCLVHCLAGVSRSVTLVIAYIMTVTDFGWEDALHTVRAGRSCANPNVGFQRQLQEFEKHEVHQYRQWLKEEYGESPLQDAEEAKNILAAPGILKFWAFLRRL
experimental_readout: IC50

compound | system_under_test | result
O=C(Nc1cnc2ccccc2c1)C(c1ccccc1)S(=O)(=O)O (centres unmarked) | VHX (Homo sapiens) | > 200 µM
O=C(NCCNC(=O)C(c1ccccc1)S(=O)(=O)O)c1cccc(C(=O)c2ccccc2)c1 (centres unmarked) | VHX (Homo sapiens) | > 200 µM
O=C(Nc1ccc2nc(C(F)(F)F)[nH]c2c1)C(c1ccccc1)S(=O)(=O)O (centres unmarked) | VHX (Homo sapiens) | > 200 µM
O=C(C(c1ccccc1)S(=O)(=O)O)N1CCCC2CCCCC21 (centres unmarked) | VHX (Homo sapiens) | > 200 µM
O=C(Nc1cccc(OCc2ccccc2)c1)C(=O)Nc1ccccc1NC(=O)C(c1ccccc1)S(=O)(=O)O (centres unmarked) | VHX (Homo sapiens) | > 50 µM
O=C(Nc1nc2ccccc2s1)C(c1ccccc1)S(=O)(=O)O (centres unmarked) | VHX (Homo sapiens) | > 200 µM
CCCCc1ccc(NC(=O)C(=O)Nc2ccccc2NC(=O)C(c2ccccc2)S(=O)(=O)O)cc1 (centres unmarked) | VHX (Homo sapiens) | > 50 µM
O=C(C(c1ccccc1)S(=O)(=O)O)N1CCC(c2ccc(Cl)c(Cl)c2)CC1 (centres unmarked) | VHX (Homo sapiens) | 150 µM

* * *

Biological target: CD45 (Homo sapiens)
Sequence (P08575 26-1306): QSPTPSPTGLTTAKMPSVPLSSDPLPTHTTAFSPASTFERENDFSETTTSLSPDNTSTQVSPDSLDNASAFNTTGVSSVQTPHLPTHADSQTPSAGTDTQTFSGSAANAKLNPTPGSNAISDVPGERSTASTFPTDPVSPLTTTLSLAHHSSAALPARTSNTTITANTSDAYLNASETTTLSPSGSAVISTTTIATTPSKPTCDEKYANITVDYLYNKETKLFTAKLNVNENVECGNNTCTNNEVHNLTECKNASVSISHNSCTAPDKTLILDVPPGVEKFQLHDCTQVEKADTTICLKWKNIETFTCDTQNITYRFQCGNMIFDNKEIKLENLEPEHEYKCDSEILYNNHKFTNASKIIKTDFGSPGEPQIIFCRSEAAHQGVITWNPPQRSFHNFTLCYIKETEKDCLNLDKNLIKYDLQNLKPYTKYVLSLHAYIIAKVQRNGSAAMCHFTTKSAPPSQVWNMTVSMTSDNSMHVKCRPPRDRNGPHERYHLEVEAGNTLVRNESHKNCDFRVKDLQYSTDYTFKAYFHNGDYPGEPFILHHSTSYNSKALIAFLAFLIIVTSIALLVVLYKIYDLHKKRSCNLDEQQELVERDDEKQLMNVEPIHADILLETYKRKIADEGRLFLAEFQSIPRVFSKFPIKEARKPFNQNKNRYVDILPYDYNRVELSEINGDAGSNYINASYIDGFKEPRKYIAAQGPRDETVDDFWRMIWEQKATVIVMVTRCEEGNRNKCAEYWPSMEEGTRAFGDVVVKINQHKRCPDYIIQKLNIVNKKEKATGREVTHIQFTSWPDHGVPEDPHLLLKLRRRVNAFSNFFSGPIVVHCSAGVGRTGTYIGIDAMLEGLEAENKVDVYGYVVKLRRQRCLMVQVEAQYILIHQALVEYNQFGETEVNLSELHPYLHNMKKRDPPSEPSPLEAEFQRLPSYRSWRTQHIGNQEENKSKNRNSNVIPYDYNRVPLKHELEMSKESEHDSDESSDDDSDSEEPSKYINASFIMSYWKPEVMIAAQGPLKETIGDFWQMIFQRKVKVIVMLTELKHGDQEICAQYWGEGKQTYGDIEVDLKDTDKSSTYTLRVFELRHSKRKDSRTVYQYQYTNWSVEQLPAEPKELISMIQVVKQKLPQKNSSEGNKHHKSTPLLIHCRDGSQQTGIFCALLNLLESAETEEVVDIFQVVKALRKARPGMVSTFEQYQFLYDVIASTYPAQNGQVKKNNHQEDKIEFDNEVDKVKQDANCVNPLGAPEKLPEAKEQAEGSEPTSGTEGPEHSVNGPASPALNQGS
experimental_readout: IC50

compound | experimental_readout | result
O=C(Nc1ccc2nc(C(F)(F)F)[nH]c2c1)C(c1ccccc1)S(=O)(=O)O (stereo not drawn) | IC50 | > 200 µM
O=C(Nc1nc2ccc(F)cc2s1)C(c1ccccc1)S(=O)(=O)O (stereo not drawn) | IC50 | > 200 µM
O=C(Nc1nc2ccccc2s1)C(c1ccccc1F)S(=O)(=O)O (stereo not drawn) | IC50 | > 100 µM
O=C(Nc1nc2ccccc2s1)C(c1ccccc1Cl)S(=O)(=O)O (stereo not drawn) | IC50 | > 100 µM
O=C(Nc1nc2ccccc2s1)C(c1ccc(Br)cc1)S(=O)(=O)O (stereo not drawn) | IC50 | > 200 µM
Cc1ccc2nc(NC(=O)C(c3ccccc3)S(=O)(=O)O)sc2c1 (stereo not drawn) | IC50 | > 200 µM
Cc1cccc2sc(NC(=O)C(c3ccccc3)S(=O)(=O)O)nc12 (stereo not drawn) | IC50 | > 200 µM
O=C(C(c1ccccc1)S(=O)(=O)O)N1CCC(c2ccc(Cl)c(Cl)c2)CC1 (stereo not drawn) | IC50 | 140 µM
Cc1c(Br)cc(NC(=O)CS(=O)(=O)O)cc1Br | IC50 | > 100 µM
O=C(Nc1cccc(OCc2ccccc2)c1)C(c1ccccc1)S(=O)(=O)O (stereo not drawn) | IC50 | > 200 µM
O=C(CS(=O)(=O)O)Nc1nc2ccccc2s1 | IC50 | > 100 µM
O=C(CS(=O)(=O)O)Nc1ccc2nc(C(F)(F)F)[nH]c2c1 | IC50 | > 100 µM
O=C(CS(=O)(=O)O)Nc1nc2ccc([N+](=O)[O-])cc2s1 | IC50 | > 100 µM
O=C(Nc1ccc(N2CCOCC2)cc1)C(c1ccccc1)S(=O)(=O)O (stereo not drawn) | IC50 | > 200 µM
O=C(O)c1ccc2nc(NC(=O)C(c3ccccc3)S(=O)(=O)O)sc2c1 (stereo not drawn) | IC50 | 90 µM
O=C(Nc1cnc2ccccc2c1)C(c1ccccc1)S(=O)(=O)O (stereo not drawn) | IC50 | > 200 µM
Nc1ccc2nc(NC(=O)C(c3ccccc3)S(=O)(=O)O)sc2c1 (stereo not drawn) | IC50 | 160 µM
O=C(Nc1nc2ccccc2s1)C(c1ccc([N+](=O)[O-])cc1)S(=O)(=O)O (stereo not drawn) | IC50 | > 200 µM
